reported_property: melting point (°C)

Cc1cccc(NC(=O)NCC(=O)N(CC(=O)N(C)c2ccc(F)cc2F)c2ccccc2)c1 = 100
N#Cc1ccc(Oc2ccccc2N)cc1C#N = 118

---

reported_property: melting point

Examples with their reported melting point follow.
CCOC(=O)CSc1nc(Cl)cc(NCc2ccc(C)cc2C)n1 = 95 to 98 °C
CN(C)C(=S)ON1C(=O)C2CCCCC2C1=O (stereo not given) = 124 to 126 °C
COc1ccccc1CNc1ccc2c(C(=N)c3ccc(F)cc3)cccc2n1 = 155 °C
CS(=O)(=O)c1ccc(-c2cc(C(=O)CCCO)nn2-c2ccc(C(F)(F)F)cc2)cc1 = 60 to 63 °C

Lab note: next compound to report on.
Recorded melting point for O=C(O)c1nc2c(NCc3ccccc3)ncnc2n1C1OC(CO)C(O)C1O (stereo not given) , please?
125 to 127 °C

---

reported_property: melting point

CC(=O)c1ccc(OCC(O)COc2cccc([N+](=O)[O-])c2)cc1O (configuration not stated) = 119 to 122 °C

# get_value(readout='melting point', item= `N#Cc1cccc(C(=O)c2ccc(C3CCCCC3)cc2)c1` )
73 to 74 °C

For the molecule shown here, `CS(=O)(=O)c1ccc(C2=C(c3ccccc3)C(=NOCc3ccccc3)C2)cc1` , give the reported melting point.
148 to 150 °C

Need melting point of O=C(CS(=O)Cc1ccc([N+](=O)[O-])cc1)NO (configuration not stated) , thanks.
227 °C

Reported melting point, molecule Cc1cc(C)cc(Sc2c(C(C)C)c(=O)[nH]c(=O)n2CC2=CCC(CO)C2)c1 (configuration not stated) : ____
147 to 148 °C

---

reported_property: melting point (°C)

O=[N+]([O-])c1cc(CO)c(CO)cc1Oc1ccc(F)cc1F = 124
CCOC(=O)C1CN(CC)c2nc(OC)ncc2C1=O (stereo not given) = 118

---

Each record here notes measured melting point.

CC#CCC/C=C/CC(=O)O = 43 to 45 °C

Can you share its melting point? I mean this compound: Cc1cc(OCCCNCCC(N)=O)ccc1Cc1c(OC2OC(CO)C(O)C(O)C2O)n[nH]c1C(C)C (configuration not stated)
191 to 193 °C

---

compounds and their reported melting point

CCc1cccc(CC(=O)O)c1OCCCc1cn(-c2ccc(C(F)(F)F)cn2)nc1C(C)C = 155 to 156 °C
CC(=O)NC(=O)CCCCBr = 88 to 90 °C
COCCc1nc2c(N)nc3ccccc3c2n1CCOc1ccccc1 = 171 to 174 °C
CCCC(C(N)=O)C(=O)O (stereo unspecified) = 137 °C
COc1ccc(-c2cccs2)c2c(OC)ccc(-c3cccs3)c12 = 216 to 218 °C

Requested read-out: melting point. Entry: `CC(C)(C)n1cc(CN(Cc2cn(CCO)nn2)Cc2cn(C(C)(C)C)nn2)nn1`
82 to 83 °C

Query: melting point; subject: `O=S(=O)(Nc1cccc(CCOCc2ccc(-c3ccc(Cl)c(Cl)c3)cc2)c1)C(F)(F)F`
74 to 75 °C

---

reported_property: melting point

CCCCOc1ccc(S(=O)(=O)C2(C(=O)O)CCN(CCCOc3ccccc3)CC2)cc1 = 84 °C

What value of melting point has been reported for the following compound? `COc1nc2c(N)nc3ccccc3c2n1Cc1ccccc1`
240 to 242 °C

GET /values?readout=melting point&item= COCC1COc2cc3ncnc(Nc4ccc(F)c(Cl)c4)c3cc2O1 (stereo not given)
260 to 285 °C

Entry under review: `CC(=O)OCc1ccc2oc(=O)c(C(=O)Oc3cc(F)ccc3Br)cc2c1` . Reported melting point?
148 to 150 °C

Endpoint output: melting point of `CCN(C(=O)c1ccccc1C(c1ccc(O)cc1)c1ccc(O)cc1)c1cccc(C)c1` . Value?
218 to 220 °C

---

# key: entry, value: melting point

# melting point lookup, item `COC(=O)c1sc2c(c1N)c1ccccc1c(=O)n2-c1ccccc1C`
236 to 237 °C

Returns the measured melting point for the input compound. Input: NC1=NC(c2ccc(OC(F)(F)F)cc2)(c2ccc(F)c(N3C=C(F)C=NC3)c2)C2=NCCCN12 (stereo not given)
94 to 105 °C

melting point for `CCN(CC)CCOc1ccc2c(C(=O)NC(=N)N)cccc2c1` ?
168 to 169 °C

Which value of melting point has been reported for `COc1ccc(C2=NN(CCCCOc3ccc(C4=NNC(=O)C4(C)C)c(F)c3F)C(=O)C2(C)C)c2cc(C(F)(F)F)sc12` in the records?
167 to 168 °C

---

Listed below: melting point values for each entry.

Answered examples (10):
c1cn(CCCc2ccc(OCc3coc(C4CCCCC4)n3)cc2)cn1 = 46 to 47 °C
O=c1c2ccc(Cl)cc2[nH]c2c(O)nn(Cc3cccc(-c4nnn[nH]4)c3)c(=O)c12 = > 275 °C
CCCSc1nc(N)c2ncn(C3C=CCCC3)c2n1 (stereo unspecified) = 108 to 113 °C
CNC(=O)N(C)C(CCSC)P(=O)(O)O (stereo unspecified) = 164 to 167 °C
CC1(C)CC(=O)OC1c1ccc(Cl)c([N+](=O)[O-])c1 (stereo unspecified) = 134 to 136 °C
CC(C)C(NC(=O)c1ccccc1)C(O)C(F)(F)F (stereo unspecified) = 150 °C
CCn1ncc2c1ncc1c(OC(C)C)nc3cc(C)nn3c12 = 129 to 130 °C
c1ccc2nc(C3CCCS3)ccc2c1 (stereo unspecified) = 63 °C
CC(=O)Nc1nc(/C=C/c2ccc([N+](=O)[O-])cc2)c(-c2ccc(S(C)(=O)=O)cc2)s1 = 294 to 295 °C
Cc1cc2c3c(ccn3-c3ccccc3C(N3CCN(C)CC3)=N2)c1 = 167 to 168 °C

Kindly consider the entry below.
Which melting point value is on record for `CNC(=NCCSCc1cc(OC)ccn1)NC#N` ?
121 to 122 °C

---

The entries below are paired with their reported melting point.

CC(=O)N(c1cccc(Br)c1)c1ncnc2ccc(N3C(=O)C=CC3=O)cc12 = 174 to 175 °C
CC12CCC3c4ccc(C(=O)O)cc4CCC3C1CCC2C(=O)C=Cc1ccccc1 (stereo not given) = 177 to 181 °C
O=c1[nH]c2ccc3c(c2n(Cc2ccccc2)c1=O)CCCN3 = > 300 °C
COc1ccccc1NCCN1CCC(C(=O)c2ccc(F)cc2)CC1 = 116 to 120 °C
CC(CO)NC(=O)c1ccc(CN(C2CCCCC2F)S(=O)(=O)c2ccc(Cl)cc2)c(F)c1F (stereo not given) = 126 to 128 °C
O=c1[nH]c2ccccc2c2ccnn12 = 253 to 254 °C

Reported melting point for `CCOP(=O)(OCC)C(C)(C)NC(=O)c1cccc([N+](=O)[O-])c1` : what is it?
95 to 96 °C

Dear colleague, I am looking for the recorded melting point of the following molecule: `Oc1cc2[nH]c3ccccc3c2cc1O`
279 to 283 °C

---

reported_property: melting point

Which melting point value is on record for `CC(C)(CCc1noc(=O)[nH]1)c1ccc(C(=O)Nc2cn3cc(C(F)(F)F)ccc3n2)cc1` ?
268 to 270 °C

// query melting point value for entry `NCCNc1cc(Cl)cc(NCCN)c1[N+](=O)[O-]`
113 °C

Give its melting point value. Item: `C[C@H]1Cc2cccc3sc(=O)n(c23)C1`
54 to 56 °C

I am curious: what melting point value has been reported for O=S(=O)(NC1Cc2ccc(CCO)cc2C1)c1ccc(Cl)cc1 (stereo not given) ?
71 to 76 °C

# query: melting point of entry CCc1c(C)c(NC(=O)NC(C)(C)C)c(C)c2c1OCC2c1ccc(C(C)C)cc1 (stereo not given)
207 to 209 °C

Consider the compound `N#Cc1cc(Cc2ccncc2)cc(-c2cccc([N+](=O)[O-])c2)c1O` and give its measured melting point.
225 °C

What does the record list as melting point for O=C(O)CCCC(O)c1ccc(Cl)cc1 (stereo not given) ?
85 to 87 °C

Report melting point for `Nc1nc(-c2cccc3ccccc23)co1` please.
155 to 162 °C

Given the entry CC(C)c1c(C=CC2CC(O)CC(O)O2)n(-c2ccc(Cl)cc2)c(=O)c2ccccc12 (mixture of isomers) , report its measured melting point.
181 to 185 °C

Find the recorded melting point belonging to `N#CSc1ccc(N)c(C#N)c1` and report it.
120 to 121 °C

---

reported_property: melting point (°C)

CCOC(=O)CSc1nc(O)ns1 = 131
CC(C)(C)OC(=O)Nc1cc(OC(C)(C)C)c(-c2ccccc2F)cc1N = 130

a: Cn1c(=O)c2c(ncn2Cc2noc(CCO)n2)n(C)c1=O
b: CC1(C)CC(O)C(C)(C)c2cc(/C=C/c3ccc(C(=O)O)cc3)c(Cn3cccn3)cc21 (stereo not given)
Between a and b , whose measured melting point reads higher? # reply format: chosen label
b
(b: 248 °C, a: 145 °C)
